- assayed system: human IGF-1 receptor (IGF-1R) (human, UniProt P08069)
- protocol description: competition, TRF vs b-rhIGF-1
pIC50: −log10 of the molar value.
Everything with pIC50 lower than 6 is Not met; everything else, including exactly 6, is Met.

# binder, category label
records = [
    ("WLDQERAWLWCEISGRGCLSGGSGGSGGSGGSGSLDESFYDWFERQLGKK [D815-12aa-RP9]", "Met"),
    ("WLDQERAWLWCEISGRGCLS [rD815]", "Not met"),
    ("GSLDESFYDWFERQLG [S386 / RP9 without terminal lysines]", "Met"),
    ("WLDQERAWLWCEISGRGCLSGGSGGSGSLDESFYDWFERQLGKK [D815-6aa-RP9]", "Met"),
    ("D815-6aa-G33 (protein) WLDQERAWLWCEISGRGCLSGGSGGSGIISQSCPESFYDWFAGQVSDPWWCW", "Met"),
]

This collection of values is drawn from patent US7173005.
